Origin of the recorded values: PubChem BioAssay (NCATS)

Target: Rap guanine nucleotide exchange factor 4 (Homo sapiens) (UniProt Q8WZA2)
Sequence (Q8WZA2 whole entry, looked up): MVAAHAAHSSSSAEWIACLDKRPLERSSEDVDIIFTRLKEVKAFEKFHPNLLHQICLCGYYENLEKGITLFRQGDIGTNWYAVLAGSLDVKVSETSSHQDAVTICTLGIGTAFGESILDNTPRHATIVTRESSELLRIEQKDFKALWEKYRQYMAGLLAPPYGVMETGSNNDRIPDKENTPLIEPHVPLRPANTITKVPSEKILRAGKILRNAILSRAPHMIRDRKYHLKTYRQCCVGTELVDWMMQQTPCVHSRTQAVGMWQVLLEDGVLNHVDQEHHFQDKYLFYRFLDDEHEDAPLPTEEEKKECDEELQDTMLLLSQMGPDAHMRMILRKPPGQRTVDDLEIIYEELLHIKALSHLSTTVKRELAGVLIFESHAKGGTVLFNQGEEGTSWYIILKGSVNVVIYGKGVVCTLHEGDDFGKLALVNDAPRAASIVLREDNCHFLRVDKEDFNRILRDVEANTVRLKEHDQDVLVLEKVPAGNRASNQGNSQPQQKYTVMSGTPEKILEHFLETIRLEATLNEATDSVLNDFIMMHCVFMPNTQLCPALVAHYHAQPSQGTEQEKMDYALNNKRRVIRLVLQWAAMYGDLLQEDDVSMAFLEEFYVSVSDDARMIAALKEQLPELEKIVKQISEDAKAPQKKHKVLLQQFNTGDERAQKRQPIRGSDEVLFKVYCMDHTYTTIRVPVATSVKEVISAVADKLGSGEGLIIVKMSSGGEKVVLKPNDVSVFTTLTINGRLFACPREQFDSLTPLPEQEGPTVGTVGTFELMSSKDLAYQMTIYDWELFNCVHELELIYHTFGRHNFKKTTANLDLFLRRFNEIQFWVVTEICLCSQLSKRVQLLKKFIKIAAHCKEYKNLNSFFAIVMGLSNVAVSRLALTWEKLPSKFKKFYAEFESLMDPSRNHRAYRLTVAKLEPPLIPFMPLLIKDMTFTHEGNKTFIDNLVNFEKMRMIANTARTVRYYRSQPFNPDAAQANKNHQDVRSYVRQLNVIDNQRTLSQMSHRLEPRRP
Assay: Confirmatory qHTS for antagonist of cAMP-regulated guanine nucleotide exchange factor 4 (EPAC2) (AID 1645885); also: nearly all actives have a fitted effect of over 25% in size
Conditions: EPAC2 Rap1B-BODIPY-GDP exchange fluorescence, biochemical; series mostly up to 12.7 µM
Records with an inconclusive call do not appear. Calls of active or inactive are those of the source. Calls follow the shape of the dose curve; as a rule, active = well fitted inhibition curve with a large enough effect; inconclusive = small, poorly fitted or top-dose-only effect; inactive = no such curve, though single readings can be large or run the other way.
Classes used: YES for active, NO for inactive

| compound | label.value |
| --- | --- |
| Cc1cc(C)nc(NS(=O)(=O)c2ccc(NC(=O)CN3C(=O)S/C(=C\c4ccccc4)C3=O)cc2)n1 | NO |
| COc1cccc(/C=N/NC(=O)c2cc3cc([N+](=O)[O-])ccc3s2)c1O | NO |
| COC1=CC(=O)C(C2CC(=O)c3c(O)cc(O)cc3O2)=CC1=O (stereo unspecified) | NO |
| C[C@H]1CN([C@@H](C)CO)S(=O)(=O)c2ccc(Br)cc2O[C@@H]1CN(C)Cc1ccccc1 | YES |
| O=C(N/N=C/c1ccc(OC(=O)c2ccccc2Cl)cc1)c1cc(O)cc(O)c1 | NO |
| COc1ccc(-n2c(SCC(=O)Nc3ccccc3OC)nc(O)cc2=O)cc1 | NO |
| O=c1c(-c2ccc(F)cc2)[n+]([O-])c2ccccc2n1OCc1ccccn1 | NO |
| CCC/C=C/c1ccc(CN2C(CC(C)C)C(=O)N(Cc3cn(CCC4OCCO4)nn3)CCS2(=O)=O)cc1 (stereo unspecified) | YES |
| N#C/C(=C/c1cccn1-c1cccc(C(=O)O)c1)c1ccc(F)cc1 | NO |
| Cc1ccc(C)c(Cn2c(CN(C)Cc3ccccc3)nc3c2c(=O)n(C)c(=O)n3C)c1 | NO |
| O=C(Nc1c(-c2ccc3c(c2)OCO3)[nH][nH]c1=O)c1ccccc1 | NO |
| CCC(C)Cn1c(O)cc2nn(-c3nc4ccccc4s3)c(=O)c-2c1C (stereo unspecified) | NO |
| Cc1c2cn[nH]c(=O)c2c(C)n1-c1ccccc1 | NO |
| O=C(/C=C/c1ccc(O)c(O)c1)O[C@@H]1C[C@](O)(C(=O)O)C[C@@H](O)[C@H]1O | NO |
| COc1ccc(C(=O)Nc2cccc(/C=C(/CCC(=O)O)c3nc4ccccc4s3)c2)cc1 | NO |
| CCCN1CC=C2C(C#N)=C(N)C(C#N)(C#N)C(c3cccc(OC)c3OC)C2C1 (stereo unspecified) | YES |
| CCC[C@H]1CC(=O)C=C(c2ccsc2)ON1C(=O)OC(C)(C)C | NO |
| CC1CCCN(C(=O)c2cccc(S(=O)(=O)Nc3cc(C(F)(F)F)ccc3Cl)c2)C1 (stereo unspecified) | YES |
| Cc1ccc(S(=O)(=O)Nc2cc(C(=O)NCCN3CCCC3)ccc2N2CCCCC2)cc1 | NO |
| Cc1ccc(N=C2NC(=O)/C(=C/C=C/c3ccco3)S2)cc1C | NO |
| CCOc1cccc(CNc2ccc(O)cc2)c1OCc1ccccc1Cl | NO |
| Brc1cc2c(cc1CSc1ncccn1)OCO2 | NO |
| CCN1CCN(c2ccc(S(=O)(=O)N3CCCCC3)cc2NC(=O)C(C)Oc2ccc(F)cc2)CC1 (stereo unspecified) | NO |
| O=C(N/N=C/c1ccc(Sc2ccccn2)o1)c1cc2ccccc2cc1O | NO |
| CS(=O)(=O)c1ccc(C(=O)NCCN2C(=O)S/C(=C\c3cccnc3)C2=O)cc1[N+](=O)[O-] | NO |
| COc1ccc(/C=C2\SC(=S)N(CCC(=O)N3CCCCC3CCO)C2=O)cc1 (stereo unspecified) | NO |
| C/C(=N\NS(=O)(=O)c1ccccc1)c1cc(Cl)cc(Cl)c1O | YES |
| Cc1ccc(NC(=O)CN2C(=O)C(c3ccc(C(C)(C)C)cc3)=NC2(C)C)cc1 | NO |
| N=C1/C(=C\c2ccc(-c3cccc(Cl)c3)o2)C(=O)N=C2SC=C(c3ccccc3)N12 | NO |
| COc1cccc(CNc2cccc3cccnc23)c1O | NO |
| O=C1C=C(NS(=O)(=O)c2ccccc2)C(=O)c2ccccc21 | NO |
| COc1cccc2cc(/C(=N/O)c3ccccc3)oc12 | NO |
| CCOc1cccc(CNc2ccc(O)cc2)c1OCc1ccc(Cl)cc1 | NO |
| C[C@@H]1COC(=O)[C@H](NC(=O)OCC2c3ccccc3-c3ccccc32)C/C=C\C[C@@H](CC(=O)N[C@H](CO)Cc2ccccc2)C(=O)N1 | NO |
| Oc1cccc(-c2nc3ncccn3c2Nc2cccc(C(F)(F)F)c2)c1 | NO |
| COc1cc(/C=C2/SC(=O)NC2=O)ccc1OCc1ccccc1 | NO |
